System: Fibroblast
TEST METHOD NOTES: Multiplex assay against human fibroblast
Type: toxicity, cell-based
DETAILS: 24 h, 10 µM, compound concentration 10 uM, replicate 2
METRIC: Population Mitochondria Different-Phenotype (%)
Could you give me the number in %? Just the number is fine.

COc1cc(Nc2nccc(-c3cnn4nc(OC)ccc34)n2)cc(C(F)(F)F)c1 :: 23
CC(C)CC(=O)Nc1[nH]nc2c1CN(C(=O)C1CCN(C)CC1)C2(C)C :: 11
Cc1cccc(CN2CCN(C(c3ccccc3)c3ccc(Cl)cc3)CC2)c1.Cl.Cl (stereo not drawn) :: 63
C=CC(=O)Nc1cccc(Sc2nc(Nc3ccc(N4CCN(C)CC4)cc3)ncc2Cl)c1 :: 4
COC(=O)C1=C(C)NC(C)=C(C(=O)OCCCN2CCC(c3ccccc3)(c3ccccc3)CC2)[C@H]1c1cccc([N+](=O)[O-])c1 :: 100
CC(C)NC(=O)N1CC[C@H](NC2=Nc3cc(F)ccc3N(CC(F)F)c3ccc(Cl)cc32)C1 :: 57
C=CC(=O)Nc1ccc2[nH]c(=O)n(C3CCN(Cc4ccc(-c5nc6cc[nH]c(=O)c6cc5-c5ccccc5)cc4)CC3)c2c1 :: 8

Proceed to the following item.
Query: Consider the compound "CNC(=O)Nc1ccc2c(c1)[C@@]1(CC2)OC(=O)N(CC(=O)N(Cc2ccc(F)cc2)[C@@H](C)C(F)(F)F)C1=O" and give its measured Population Mitochondria Different-Phenotype (%).
Result: 0
